- Measured target: Free fatty acid receptor 1 (Homo sapiens, UniProt O14842)
- Sequence (O14842 whole entry): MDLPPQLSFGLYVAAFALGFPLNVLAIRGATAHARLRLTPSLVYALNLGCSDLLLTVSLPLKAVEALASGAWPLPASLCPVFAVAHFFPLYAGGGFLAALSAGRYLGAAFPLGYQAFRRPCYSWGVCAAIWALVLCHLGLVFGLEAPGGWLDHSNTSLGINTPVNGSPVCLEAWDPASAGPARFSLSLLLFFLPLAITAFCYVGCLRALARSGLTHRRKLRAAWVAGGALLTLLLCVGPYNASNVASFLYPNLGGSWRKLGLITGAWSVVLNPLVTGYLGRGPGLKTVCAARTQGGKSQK
- Run description: Agonist activity at GPR40 (unknown origin) expressed in CHO cells incubated for 2 hrs measured over 20 secs in presence of human serum albumin by aequorin based luminescence assay
// reported EC50 per item
Measurement type: EC50 (nM)

Compound	Unit	Experimental result
CC[C@H](CC(=O)O)c1ccc(F)c(OCc2ccc(-c3cc(OC)ccc3F)c(C3=CCCC3(C)C)c2)c1	nM	740
CCC[C@H](CC(=O)O)c1cccc(OCc2ccc(-c3cc(OC)ccc3F)c([C@@H]3CCCC3(C)C)c2)c1	nM	110
CC[C@H](CC(=O)O)c1cccc(OCc2ccc(-c3cc(OC)ccc3F)c(C3CCCC3(C)C)c2)c1F (single isomer, unassigned)	nM	120
COc1ccc(F)c(-c2ccc(COc3cccc([C@H](CC(=O)O)C4CC4)c3)cc2[C@@H]2CCCC2(C)C)c1	nM	1830

---

- Run description: Fraction unbound in cynomolgus monkey plasma at 0.5 mg/kg, iv
- Assay type: ADME, organism-based, Macaca fascicularis
Measurement type: fraction unbound

Compound	Experimental result
COc1ccc(F)c(-c2ccc(COc3cccc([C@@H](CC(=O)O)C4CC4)c3)cc2C2=CCCC2(C)C)c1	0.012
CC[C@H](CC(=O)O)c1cccc(OCc2ccc(-c3cc(OC)ccc3F)c(C3CCCC3(C)C)c2)c1F (single isomer, unassigned)	0.017

---

- Measured target: UniProt:O14842
- Run description: Agonist activity at GPR40 (unknown origin) expressed in CHO cells incubated for 2 hrs measured over 20 secs in presence of human serum albumin by aequorin based luminescence assay
pEC50: −log10 of the molar value.

Structure	Measured target	pEC50
COc1ccc(F)c(-c2ccc(COc3cccc([C@@H](CC(=O)O)C4CC4)c3)cc2[C@@H]2CCCC2(C)C)c1	UniProt:O14842	7.10
COc1ccc(F)c(-c2ccc(COc3cccc([C@@H](CC(=O)O)CC4CC4)c3)cc2[C@@H]2CCCC2(C)C)c1	UniProt:O14842	7.00
COc1ccc(F)c(-c2ccc(COc3cccc([C@@H](CC(=O)O)C4CC4)c3F)cc2[C@@H]2CCCC2(C)C)c1	UniProt:O14842	7.00
COc1ccc(F)c(-c2ccc(COc3cccc([C@H](C)CC(=O)O)c3)cc2[C@@H]2CCCC2(C)C)c1	UniProt:O14842	6.77

---

- Run description: Oral bioavailability in dog at 2 mg/kg
- Format: ADME, organism-based, Canis lupus familiaris
- Condition details: in vivo

Compound	bioavailability [%]
CC[C@H](CC(=O)O)c1cccc(OCc2ccc(-c3cc(OC)ccc3F)c(C3CCCC3(C)C)c2)c1F (single isomer, unassigned)	62

---

- Run description: Half life in rat at 0.5 mg/kg, iv
- Format: ADME, organism-based
- Condition details: in vivo
Measurement type: half-life (h)

Compound	Experimental result
CC[C@H](CC(=O)O)c1cccc(OCc2ccc(-c3cc(OC)ccc3F)c([C@@H]3CCCC3(C)C)c2)c1	2.1
COc1ccc(F)c(-c2ccc(COc3cccc([C@@H](CC(=O)O)C4CC4)c3F)cc2[C@@H]2CCCC2(C)C)c1	3.3
CC[C@H](CC(=O)O)c1cccc(OCc2ccc(-c3cc(OC)ccc3F)c(C3CCCC3(C)C)c2)c1F (single isomer, unassigned)	2

---

- Run description: Fraction unbound in rat plasma at 0.5 mg/kg, iv or 2 mg/kg, po
- Format: ADME, organism-based

Compound	fraction unbound
COc1ccc(F)c(-c2ccc(COc3cccc([C@@H](CC(=O)O)C4CC4)c3)cc2C2=CCCC2(C)C)c1	0.01
CC[C@H](CC(=O)O)c1cccc(OCc2ccc(-c3cc(OC)ccc3F)c([C@@H]3CCCC3(C)C)c2)c1	0.006
COc1ccc(F)c(-c2ccc(COc3cccc([C@@H](CC(=O)O)C4CC4)c3)cc2[C@@H]2CCCC2(C)C)c1	0.006
CC[C@H](CC(=O)O)c1cccc(OCc2ccc(-c3cc(OC)ccc3F)c(C3CCCC3(C)C)c2)c1F (single isomer, unassigned)	0.003
COc1ccc(F)c(-c2ccc(COc3cccc([C@@H](CC(=O)O)C4CC4)c3F)cc2[C@@H]2CCCC2(C)C)c1	0.003
